B1: Neutrophil cytosol factor 2, residues 456 to 514; numbered along this chain, P19878 (parent)
chain: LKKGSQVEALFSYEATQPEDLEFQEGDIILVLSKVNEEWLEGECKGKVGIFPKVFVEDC

# Variants of: B1
# assayMethodText: abundance fitness (aPCA) (normalised: wild type 0, dead -1); higher = more abundant; growth selection in yeast, the domain comes from the species named
# experimentalParameters: Homo sapiens

{"sequenceCode": "LKKGSQVEALFSYEATQPEDLEFQEGDIILVLSKVNEEELEGECKGKVGIFPKVFVEDC [W39E]", "abundance fitness": -0.269}
{"sequenceCode": "LKKCSQVEALFSYEATQPEDLEFQEGDIILVLSKVNEEWLEGECKGKVGIFPKVFVEDC [G4C]", "abundance fitness": -0.371}
{"sequenceCode": "LKKGSQVEALFSYEATQPEDLEFQEGDIILVLSKVNREWLEGECKGKVGIFPKVFVEDC [E37R]", "abundance fitness": -0.22}
{"sequenceCode": "LKKGSQVEALFHYEATQPEDLEFQEGDIILVLSKVNEEWLEGECKGKVGIFPKVFVEDC [S12H]", "abundance fitness": -0.44}
{"sequenceCode": "LKKGSQVEALFSYEATQPEDLEFQEGDIILVLSKVNEEWLEGECKGKVGIFPGVFVEDC [K53G]", "abundance fitness": 0.02}
{"sequenceCode": "LKKGSQVEALFSYEAQQPEDLEFQEGDIILVLSKVNEEWLEGECKGKVGIFPKVFVEDC [T16Q]", "abundance fitness": -0.158}
{"sequenceCode": "LKKGSQVEALFSYEATQPEDLEFQEGDIILVMSKVNEEWLEGECKGKVGIFPKVFVEDC [L32M]", "abundance fitness": -0.532}
{"sequenceCode": "LKKGSQVEALFSYEATQPEDLEFQEGDIILVLSKVNEEWLEGECQGKVGIFPKVFVEDC [K45Q]", "abundance fitness": -0.577}
{"sequenceCode": "LKKGSQVEALFSYEATQPEDLEFQEGDIIVVLSKVNEEWLEGECKGKVGIFPKVFVEDC [L30V]", "abundance fitness": -0.07}
{"sequenceCode": "LKKGSQVEALVSYEATQPEDLEFQEGDIILVLSKVNEEWLEGECKGKVGIFPKVFVEDC [F11V]", "abundance fitness": 0.035}
{"sequenceCode": "LKKGSQVEALFSYEATQPEDLEFQEGDIILVLSKVNEEWLEGECKGKVGILPKVFVEDC [F51L]", "abundance fitness": -0.735}
{"sequenceCode": "LTKGSQVEALFSYEATQPEDLEFQEGDIILVLSKVNEEWLEGECKGKVGIFPKVFVEDC [K2T]", "abundance fitness": 0.427}
{"sequenceCode": "LKKGSQVEALFSYEATQSEDLEFQEGDIILVLSKVNEEWLEGECKGKVGIFPKVFVEDC [P18S]", "abundance fitness": -0.587}
{"sequenceCode": "LKKGSQVEALFSYEATQPEDLEFQEGDIILVLSKVNEEWLEGECKGKVGIFPKIFVEDC [V54I]", "abundance fitness": -0.079}
{"sequenceCode": "LKKGSQVEALFSYEATQPEDLEFQEGDIILVLSKVNEEWLEGECKGKVGIFPKHFVEDC [V54H]", "abundance fitness": 0.425}
{"sequenceCode": "LKKGSQVEALFSYEATQPEDLEFQSGDIILVLSKVNEEWLEGECKGKVGIFPKVFVEDC [E25S]", "abundance fitness": -0.239}
{"sequenceCode": "LKKGSEVEALFSYEATQPEDLEFQEGDIILVLSKVNEEWLEGECKGKVGIFPKVFVEDC [Q6E]", "abundance fitness": -0.158}
{"sequenceCode": "LKKGSQVEALFSYEATQPEDLEFQEGDIILVLSKVNEEWLEGECKGKVVIFPKVFVEDC [G49V]", "abundance fitness": -1.05}
{"sequenceCode": "LKKGSQVEALFSYEATQPEDLEFQEGDIILVLSKFNEEWLEGECKGKVGIFPKVFVEDC [V35F]", "abundance fitness": -0.264}
{"sequenceCode": "LKKGSQVEALFSYEATQPEDLEFQEGDIILVLSKVNEEWLEGECKGPVGIFPKVFVEDC [K47P]", "abundance fitness": -0.806}
{"sequenceCode": "LKKGSQVEALFSYEATQPEDLEFQEGDIILVLSRVNEEWLEGECKGKVGIFPKVFVEDC [K34R]", "abundance fitness": -0.47}
{"sequenceCode": "LKKGSQVEALFSYEATQPEDLEFQEGDIILVLSKVNEEWLEGECKGKVGIFPKVTVEDC [F55T]", "abundance fitness": -0.133}
